The origin of these recorded values is paper PMC6102549.

Would you kindly list IC50 for each of these compounds?
System: LO2 cells
Experimental Details: MTT assay, toxic effect on normal liver cells LO2
Type: cell-based
Condition Summary: Homo sapiens, L02, 72 h, in vitro

Known IC50 results, listed for orientation:
[in] # lookup: IC50 of C/C=C\C=C\C/C=C\CCCCCCCc1cccc2c1OB(C(=O)C(F)(F)C(F)(F)F)O2
[out] > 200 µM

[in] # lookup: IC50 of C/C=C\C=C\C/C=C\CCCCCCCc1cccc2c1OB(c1ccncc1)O2
[out] > 200 µM

[in] # lookup: IC50 of C/C=C\C=C\C/C=C\CCCCCCCc1cccc2c1OB(c1ccccc1)O2
[out] 181 µM

[in] # lookup: IC50 of C/C=C\C=C\C/C=C\CCCCCCCc1ccc2c(C)cc(=O)oc2c1OB(O)c1ccncc1
[out] > 200 µM

Hi! Can you tell me IC50 for each of these compounds?
1. C/C=C\C=C\C/C=C\CCCCCCCc1ccc2c(C)cc(=O)oc2c1O
2. C/C=C\C=C\C/C=C\CCCCCCCc1cccc(O)c1NS(C)(=O)=O
3. C/C=C\C=C\C/C=C\CCCCCCCc1cccc(O)c1O[Si](CCCS)(OC)OC
4. C/C=C\C=C\C/C=C\CCCCCCCc1ccc2c(C)cc(=O)oc2c1OB(O)c1ccccc1
5. C/C=C\C=C\C/C=C\CCCCCCCc1ccc2c(C)cc(=O)oc2c1OB(O)c1ccnc(F)c1

[out]
180 µM
121 µM
150 µM
> 200 µM
> 200 µM

Hi! Can you tell me IC50 for each of these compounds?
1. C/C=C\C=C\C/C=C\CCCCCCCc1cccc2c1OC(C)(C(C)Br)O2 (stereo not drawn)
2. C#CCOc1c(O)cccc1CCCCCCC/C=C\C/C=C/C=C\C
3. C/C=C\C=C\C/C=C\CCCCCCCc1cccc2c1OB(c1ccnc(F)c1)O2

[out]
1: > 200 µM; 2: > 200 µM; 3: > 200 µM

* * *

Test system: HepG2 cells
Experimental Details: MTT assay, inhibition of proliferation of HepG2 cells
Type: cell-based, human
Condition Summary: Homo sapiens, HepG2, 72 h, in vitro, 72 h
Measured Parameter: IC50 (µM)
Numbers only, in µM.

[in] # lookup: IC50 of C/C=C\C=C\C/C=C\CCCCCCCc1cccc(O)c1NS(C)(=O)=O
[out] 15

[in] # lookup: IC50 of C/C=C\C=C\C/C=C\CCCCCCCc1cccc(O)c1O[Si](CCCS)(OC)OC
[out] 7.89

[in] # lookup: IC50 of C/C=C\C=C\C/C=C\CCCCCCCc1cccc2c1OB(C(=O)C(F)(F)C(F)(F)F)O2
[out] 198

[in] # lookup: IC50 of C/C=C\C=C\C/C=C\CCCCCCCc1ccc2c(C)cc(=O)oc2c1OB(O)c1ccnc(F)c1
[out] 151

[in] # lookup: IC50 of C/C=C\C=C\C/C=C\CCCCCCCc1cccc2c1OB(c1ccncc1)O2
[out] 180

Hi! Can you tell me IC50 for each of these compounds?
1. C/C=C\C=C\C/C=C\CCCCCCCc1cccc2c1OC(C)(C(C)Br)O2 (centres unmarked)
2. C/C=C\C=C\C/C=C\CCCCCCCc1ccc2c(C)cc(=O)oc2c1OB(O)c1ccncc1
3. C/C=C\C=C\C/C=C\CCCCCCCc1ccc2c(C)cc(=O)oc2c1OB(O)c1ccccc1

[out]
1. 89.7
2. 67
3. 78.7

* * *

Would you kindly list IC50 for each of these compounds?
Tested on: HepG2 cells
Experimental Details: MTT assay, inhibition of proliferation of HepG2 cells
Format: cell-based, human
Condition Summary: Homo sapiens, HepG2, 72 h, in vitro, 72 h

Known IC50 results, listed for orientation:
[in] # lookup: IC50 of C/C=C\C=C\C/C=C\CCCCCCCc1cccc2c1OB(c1ccnc(F)c1)O2
[out] > 200 µM

[in] # lookup: IC50 of C/C=C\C=C\C/C=C\CCCCCCCc1ccc2c(C)cc(=O)oc2c1O
[out] ~28 µM

---
[in] # lookup: IC50 of C#CCOc1c(O)cccc1CCCCCCC/C=C\C/C=C/C=C\C
[out] > 200 µM
